Reported solubility values are given for each entry in this list.
PARAMETER_MEASURED: solubility (mM)

| COMPOUND | ENDPOINT_RESULT |
| --- | --- |
| CC(C[N+](C)(C)C)OC(N)=O.[Cl-] (stereo not drawn) | 3180 |
| C=C1CCO[C@]2([C@H](O)[C@@](C)(O)CO)NC(=O)[C@@]1(O)NC2=O | 635 |
| CC(=O)OC[C@H]1O[C@@](COC(C)=O)(O[C@H]2O[C@H](COC(C)=O)[C@@H](OC(C)=O)[C@H](OC(C)=O)[C@H]2OC(C)=O)[C@@H](OC(C)=O)[C@@H]1OC(C)=O | 1.34 |
| NC(=O)OCC(Cl)(Cl)Cl | 52 |
| CN(CCO)c1nc2c(c(=O)n(C)c(=O)n2C)n1C | 224 |
| Nc1ccc(S(=O)(=O)O)c2ccc(S(=O)(=O)O)cc12 | 22.8 |
| CC(=O)N/N=C/c1ccc([N+](=O)[O-])o1 | 2.54 |
| CC(=O)Oc1ccc(Br)cc1C(=O)O | 2.57 |
| CCC(Br)(CC)C(=O)NC(N)=O | 1.4 |
| CN(Cc1cc(Br)cc(Br)c1N)C1CCCCC1 | 10.6 |
| O=C(C(Cl)Cl)N(CCO)Cc1ccc(Oc2ccc([N+](=O)[O-])cc2)cc1 | 0.00751 |
| CC(O)C(Cl)(Cl)Cl (stereo not drawn) | 175 |
| O=Cc1ccccc1O[C@@H]1O[C@H](CO)[C@@H](O)[C@H](O)[C@H]1O | 63.3 |

====

| MOLECULE | UNITS_TEXT | solubility |
| --- | --- | --- |
| C=CCC(C(=O)NC(N)=O)C(C)C (configuration not stated) | mM | 1.79 |
| CC[C@@]12CCCN3CC[C@]4(c5cccc(OC)c5N(C(C)=O)[C@@H]4CC1)[C@H]32 | mM | 47.1 |
| O=C(c1ccccc1O)N1CCOCC1 | mM | 19.8 |
| CCC(C)(CC)OC(N)=O | mM | 27.5 |
| CN(C)CCc1ccc(O)cc1 | mM | 42.4 |
| COCc1ccc([N+](=O)[O-])o1 | mM | 70 |
| COC(=O)CC(C)=O | mM | 4310 |

====

Reported solubility values are given for each entry in this list.
PARAMETER_MEASURED: solubility (mM)

| MOLECULE | ENDPOINT_RESULT |
| --- | --- |
| O=C([O-])c1ccccc1C(=O)O.[K+] | 408 |
| CCC1(N2CCCCC2)C(=O)NC(=O)NC1=O | 6.98 |
| O=C(C1CCCCC1)N1CC(=O)N2CCc3ccccc3C2C1 (stereo not drawn) | 1.28 |
| CN1C(=O)OC(C)(C)C1=O | 349 |
| C#CCOC(=O)/C=C(C)/C=C/CC(C)CCCC(C)C (stereo not drawn) | 0.0189 |
| OC(CI)CI | 40.1 |
| OC[C@@H](O)[C@H](O)[C@@H](O)CO | 4220 |
| Cc1cc(NS(=O)(=O)c2ccc(N)cc2)sn1 | 83.9 |
| O=P([O-])([O-])O[C@@H]1[C@@H](O)[C@H](O)[C@@H](O)[C@H](O)[C@@H]1O | 1280 |
| CCOc1ccc2nc3cc(N)ccc3c(N)c2c1 | 263 |
| O=C(OC[C@H]1O[C@@H](Oc2ccccc2CO)[C@H](O)[C@@H](O)[C@@H]1O)c1ccccc1 | 1.28 |
| CCC(C)C(C)(COC(N)=O)COC(N)=O (stereo not drawn) | 4.31 |
| CN1C2CCCC1CC(=O)C2 | 2610 |
